Each recorded value in this set is attributed to ChEMBL document CHEMBL4699652.

test system: Cell membrane; assay: Induction of outer membrane re-arragenemnts in Escherichia coli ATCC 25922 incubated for 4 mins by NPN uptake assay; format: subcellular
The source made the active and inactive calls. The rule behind the calls is not given here.
observable: Activity

Worked cases, Activity given:
| substance | observable | result |
| --- | --- | --- |
| H-KLAKLAKKPLKLAK-OH | Activity | Active |
| H-LKKLLKLLKKPLKL-NH2 | Activity | Active |
| Ac-LKKLLKLPKKLLKL-NH2 | Activity | Active |
| Ac-LKKLLKLLPKLLKL-NH2 | Activity | Active |
| Ac-KLLKLLKKPLKLLK-NH2 | Activity | Active |

Quick one: give me Activity for each item below, same order please.
1. Ac-LKKLLKLLKKLPKL-NH2
2. Ac-KLLKLPKKLLKLLK-NH2
3. COLISTIN

## Output
1. Active
2. Active
3. Active

====

tested on: Erythrocyte; assay: Hemolytic activity in human red blood cells assessed as induction of hemoglobin release incubated for 4 hrs by microplate reader based assay; assay type: cell-based
observable: HC10 (µM)
One number for each entry, in µM.

| substance | HC10 [µM] |
| --- | --- |
| Ac-LKKLLKLPKKLLKL-NH2 | 640 |
| Ac-LKKLLKLLPKLLKL-NH2 | 5 |

Quick one: give me HC10 for each item below, same order please.
1. Ac-KLLKLLPKLLKLLK-NH2
2. Ac-KLLKLLKPLLKLLK-NH2
3. Ac-KLLKLPKKLLKLLK-NH2

## Output
1: 5; 2: 2.5; 3: 640
